Just for reference, ChEMBL document CHEMBL1135592 is where these values come from.

Let's look at some compounds and their measured pKi.
- System: Adenosine receptor A3 (Homo sapiens)
- Sequence (P0DMS8 whole entry): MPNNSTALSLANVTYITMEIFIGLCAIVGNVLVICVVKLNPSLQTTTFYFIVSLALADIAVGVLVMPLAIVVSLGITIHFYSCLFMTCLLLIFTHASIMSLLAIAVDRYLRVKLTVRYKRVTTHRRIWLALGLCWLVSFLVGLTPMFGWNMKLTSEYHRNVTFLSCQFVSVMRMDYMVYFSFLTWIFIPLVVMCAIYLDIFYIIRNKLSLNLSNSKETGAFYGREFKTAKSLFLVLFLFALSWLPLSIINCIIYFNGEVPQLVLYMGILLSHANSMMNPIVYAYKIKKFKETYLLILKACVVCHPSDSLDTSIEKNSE
- Assay protocol: Binding affinity towards human Adenosine A3 receptor wild type
// pKi here means minus log10 of the molar concentration (mol/L)

As a guide, the following entries are already answered.
>  <Compound>
OC[C@H]1O[C@@H](n2cnc3c(NC4CCCC4)ncnc32)[C@H](O)[C@@H]1O

>  <pKi>
6.85

$$$$
>  <Compound>
CNC(=O)C12CC1C(n1cnc3c(NCc4cccc(I)c4)ncnc31)C(O)C2O (configuration not stated)

>  <pKi>
8.68

$$$$
>  <Compound>
OCC12CC1C(n1cnc3c(NCc4cccc(I)c4)ncnc31)C(O)C2O (configuration not stated)

>  <pKi>
8.41

$$$$

Data request: What measured pKi goes with OCC12CC1C(n1cnc3c(NCc4cccc(I)c4)nc(Cl)nc31)C1OC12 (configuration not stated) ?
Data returned: 6.23

Data request: What measured pKi goes with OCC12CC1C(n1cnc3c(NCc4cccc(I)c4)nc(Cl)nc31)C(O)C2O (configuration not stated) ?
Data returned: 8.77

Data request: What measured pKi goes with Nc1nc(Cl)nc2c1ncn2C1C(O)C(O)C2(CO)CC12 (configuration not stated) ?
Data returned: 7.08

Data request: What measured pKi goes with `CCCOC(=O)c1c(-c2ccccc2)nc(CC)c(C(=O)SCC)c1CCC` ?
Data returned: 6.62

----------
- System: Adenosine receptor A3 (Homo sapiens, UniProt P0DMS8)
- Assay protocol: Effect on forskolin-stimulated cyclic AMP production in intact chinese hamster ovary (CHO) cell expressing the human Adenosine A3 receptor
pEC50: −log10 of the molar value.
Assign met whenever pEC50 does not fall below 7; assign not met whenever it does.

As a guide, the following entries are already answered.
>  <Compound>
Nc1nc(Cl)nc2c1ncn2[C@@H]1O[C@H](CO)[C@@H](O)[C@H]1O

>  <Category>
not met

$$$$
>  <Compound>
CNC(=O)C12CC1C(n1cnc3c(NC)nc(Cl)nc31)C(O)C2O (stereo unspecified)

>  <Category>
met

$$$$
>  <Compound>
Nc1nc(F)nc2c1ncn2[C@@H]1O[C@H](CO)[C@@H](O)[C@H]1O

>  <Category>
not met

$$$$
>  <Compound>
OC[C@H]1O[C@@H](n2cnc3c(NC4CCCC4)ncnc32)[C@H](O)[C@@H]1O

>  <Category>
not met

$$$$

Data request: Does pEC50 meet or surpass 7 for `CCCCn1c(=O)c2c(ncn2[C@@H]2O[C@H](C(=O)NC)[C@@H](O)[C@H]2O)n(CCCC)c1=O` ?
Data returned: not met

Data request: Does pEC50 meet or surpass 7 for CNC(=O)C12CC1C(n1cnc3c(NCc4cccc(I)c4)ncnc31)C(O)C2O (stereo unspecified) ?
Data returned: met
